Biological target: Human ATX protein (Homo sapiens)
Construct: made in house
Experiment: ATX biochemical FRET assay with FS-3 substrate
Conditions: FRET substrate FS-3 2 μM, ATX 1.0 μg/mL, 30 minutes pre-incubation, 2 hours at room temperature; read-out: IC50
property_name: IC50

>>> print(df.to_string())
                                   molecule  measurement
0  C[C@H](N[C@H]1C[C@@H](C(=O)O)C1(C)C)c1ccc2ccc(O[C@H]3CC[C@@H](C)CC3)c(C(F)(F)F)c2c1 [Example 114b]     ≤ 100 nM
1  CC[C@H]1CC[C@@H](Oc2ccc3ccc(C(C)N[C@@H]4C[C@H](C(=O)O)C4(C)C)cc3c2C(F)(F)F)CC1 (stereo partly shown)     ≤ 100 nM

For CC[C@H]1CC[C@@H](Oc2ccc3ccc(C(C)N[C@H]4CC[C@@H](C(=O)O)CC4)cc3c2C(F)(F)F)CC1 (stereo partly shown) , write its IC50.
≤ 100 nM

For CC[C@H]1CC[C@@H](Oc2ccc3ccc(CNC4CC(C(=O)O)C4(C)C)cc3c2C(F)(F)F)CC1 (stereo partly shown) , write its IC50.
≤ 500 nM

For C[C@@H](N[C@H]1CC[C@@H](C(=O)O)CC1)c1ccc2ccc(O[C@H]3CC[C@@H](C(F)(F)F)CC3)c(C(F)(F)F)c2c1 [Example 136b] , write its IC50.
≤ 250 nM
